Entries and their BAF3-FGFR3 (MIN IL3 Alamar Blue- pIC50) values follow.
biological target: Ba/F3-FGFR3-transfected cells (Homo sapiens, UniProt P22607, cells depend on it, form not given); construct: BAF3-FGFR3 (MIN IL3 Alamar Blue- pIC50); other: minus IL3; 24 hours, Alamar Blue; assay: Ba/F3-FGFR3 (minus IL3 or plus IL3) cellular proliferation assay, Alamar Blue; assay type: cell-based; conditions: minus IL3; 24 hours, Alamar Blue
Sequence (P22607 whole entry, change not shown): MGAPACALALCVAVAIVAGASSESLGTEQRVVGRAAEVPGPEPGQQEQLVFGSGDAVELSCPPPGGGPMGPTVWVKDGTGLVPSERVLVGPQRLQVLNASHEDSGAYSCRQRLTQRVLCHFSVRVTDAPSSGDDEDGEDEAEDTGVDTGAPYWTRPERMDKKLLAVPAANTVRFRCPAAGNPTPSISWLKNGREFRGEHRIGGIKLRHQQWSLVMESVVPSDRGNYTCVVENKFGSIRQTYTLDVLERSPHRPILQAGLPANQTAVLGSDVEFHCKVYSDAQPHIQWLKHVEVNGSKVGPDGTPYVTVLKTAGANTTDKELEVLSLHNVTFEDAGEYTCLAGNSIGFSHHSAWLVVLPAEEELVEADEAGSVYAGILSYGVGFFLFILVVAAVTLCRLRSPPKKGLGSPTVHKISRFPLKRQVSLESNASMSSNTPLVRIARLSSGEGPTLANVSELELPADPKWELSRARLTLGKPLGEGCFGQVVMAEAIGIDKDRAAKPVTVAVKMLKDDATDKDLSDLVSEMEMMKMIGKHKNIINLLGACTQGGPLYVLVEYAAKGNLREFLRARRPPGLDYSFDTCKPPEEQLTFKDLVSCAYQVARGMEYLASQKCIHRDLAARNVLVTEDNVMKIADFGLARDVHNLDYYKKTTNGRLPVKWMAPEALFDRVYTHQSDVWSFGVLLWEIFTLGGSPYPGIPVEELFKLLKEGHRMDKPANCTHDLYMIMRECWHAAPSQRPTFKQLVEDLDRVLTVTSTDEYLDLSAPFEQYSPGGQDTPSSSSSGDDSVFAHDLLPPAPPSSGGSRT
Measured Attribute: BAF3-FGFR3 (MIN IL3 Alamar Blue- pIC50)

Compound	Result Value
COc1cc(OC)cc(N(CC2CCN(c3nccc(OC)n3)C2)c2ccc3ncc(-c4cnn(C)c4)cc3c2)c1 (stereo not shown) [Compound 7]	<5
COc1cc(OC)cc(N(CCCN2CCCO2)c2ccc3ncc(-c4cnn(C)c4)cc3c2)c1 [Compound 19]	6.26
COc1cc(OC)cc(N(CCCNCC(F)(F)F)c2ccc3ncc(-c4cnn(C)c4)cc3c2)c1 [Compound 5]	5.67
COc1cc(OC)c(F)c(N(CC#Cc2ncccc2OC)c2ccc3ncc(-c4cnn(C)c4)cc3c2)c1 [Compound 26]	8.17
